biological target: T1, Recombinant human CD4 (R&D Systems, Cat. 10327-CD) (human, UniProt P01730 26-390, limits assumed); experiment: BLI Octet, non-clonal supernatant on AMC sensor, 100 nM human CD4, 1:1 local fit;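 note: Single-concentration kinetics per supernatant, with the 1:1 model fitted across both the association and dissociation phases of the sensorgram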
T1 construct: Bought reagent; also called huCD4
Observed Property: kon (M⁻¹ s⁻¹)
API: value field is a number in M⁻¹ s⁻¹; no unit string.

# count of solved cases: 2
- Binder: "75110_05B13A (antibody, V domains shown, Tested as non-clonal AlivaMab Mouse Kappa hybridoma supernatant, captured by anti-mouse IgG Fc sensor) VH: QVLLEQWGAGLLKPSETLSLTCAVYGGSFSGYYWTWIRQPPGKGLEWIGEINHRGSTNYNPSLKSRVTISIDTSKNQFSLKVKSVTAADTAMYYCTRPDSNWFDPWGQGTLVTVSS VL: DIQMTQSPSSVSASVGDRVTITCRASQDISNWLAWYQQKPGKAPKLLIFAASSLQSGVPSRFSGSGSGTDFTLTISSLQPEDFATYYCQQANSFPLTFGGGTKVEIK"
  kon, M⁻¹ s⁻¹: 200000
- Binder: "75110_01J09A (antibody, V domains shown, Tested as non-clonal AlivaMab Mouse Kappa hybridoma supernatant, captured by anti-mouse IgG Fc sensor) VH: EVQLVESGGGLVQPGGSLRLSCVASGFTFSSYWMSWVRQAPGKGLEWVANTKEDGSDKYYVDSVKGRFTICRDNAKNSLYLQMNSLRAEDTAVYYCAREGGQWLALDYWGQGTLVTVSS VL: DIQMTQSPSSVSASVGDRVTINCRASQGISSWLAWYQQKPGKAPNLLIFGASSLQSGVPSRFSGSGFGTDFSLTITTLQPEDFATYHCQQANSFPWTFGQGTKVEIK"
  kon, M⁻¹ s⁻¹: 120000

Name the recorded kon for 75110_09G15A (antibody, V domains shown, Tested as non-clonal AlivaMab Mouse Kappa hybridoma supernatant, captured by anti-mouse IgG Fc sensor) VH: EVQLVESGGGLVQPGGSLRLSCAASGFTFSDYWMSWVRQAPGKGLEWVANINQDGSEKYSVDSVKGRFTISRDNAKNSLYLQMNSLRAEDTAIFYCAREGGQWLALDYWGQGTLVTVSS VL: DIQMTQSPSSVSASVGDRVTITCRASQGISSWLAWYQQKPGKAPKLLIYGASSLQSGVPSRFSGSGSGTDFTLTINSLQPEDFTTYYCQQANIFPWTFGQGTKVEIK .
37000
